- SYSTEM NAME: T1, Taq DNA polymerase (Thermus aquaticus, UniProt P19821 1-832)
- T1 construct: also called Taq enzyme; Taq DNA enzyme
- T1 sequence (P19821 whole entry): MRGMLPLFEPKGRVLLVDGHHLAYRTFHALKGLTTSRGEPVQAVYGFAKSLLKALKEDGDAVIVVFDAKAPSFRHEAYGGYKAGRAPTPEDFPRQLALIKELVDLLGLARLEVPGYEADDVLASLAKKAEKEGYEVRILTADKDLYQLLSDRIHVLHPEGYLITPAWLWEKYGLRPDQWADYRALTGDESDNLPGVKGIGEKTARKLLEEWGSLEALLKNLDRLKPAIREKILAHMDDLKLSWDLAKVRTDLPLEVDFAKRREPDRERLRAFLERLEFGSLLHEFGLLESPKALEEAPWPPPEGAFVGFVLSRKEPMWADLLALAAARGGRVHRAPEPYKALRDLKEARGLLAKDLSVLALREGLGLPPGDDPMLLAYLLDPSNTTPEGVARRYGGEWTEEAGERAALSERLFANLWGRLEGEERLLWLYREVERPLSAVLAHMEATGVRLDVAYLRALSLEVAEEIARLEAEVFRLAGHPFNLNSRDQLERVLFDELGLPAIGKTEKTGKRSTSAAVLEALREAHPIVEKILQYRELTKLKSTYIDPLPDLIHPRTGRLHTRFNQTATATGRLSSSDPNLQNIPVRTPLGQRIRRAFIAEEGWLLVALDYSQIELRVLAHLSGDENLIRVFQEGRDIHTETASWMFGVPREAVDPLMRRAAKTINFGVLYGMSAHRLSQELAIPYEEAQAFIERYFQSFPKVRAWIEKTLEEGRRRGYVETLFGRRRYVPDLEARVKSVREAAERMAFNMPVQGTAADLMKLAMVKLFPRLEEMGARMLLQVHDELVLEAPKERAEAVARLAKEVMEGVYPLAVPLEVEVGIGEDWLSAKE
- ASSAY NAME: AMC sensor, antibody immobilised
I'd appreciate it if you could supply koff values for the items below.
Respond with the bare value in s⁻¹.

IN: Can you look up the measured koff of Mutation 1-51 (antibody, V domains shown, Mutation 1 background; CDRs built) VH: QVQLQQPGAELVKPGASVRLSCQTSVNTFTTYYIYWVKQRPGEGLEWIGGINPTSGGPVFNEKFKSKATLTVDTSSSTAYMQLSSLTSVDSAVYYCTRSLLRRGYYFDYWGQGTALTVSS VL: DIQMTQTTSSLSASLGDRVTISCRASQDINNYLNWYQQKPDGTIKLLIYYTSRLHSGVPSRFSGSGSGTDYSLTIANLEQEDIATYFCQQDDTLPLTFGAGTKVELKR for me?
OUT: 3.77e-05

IN: Requested read-out: koff. Entry: Mutation 1-59 (antibody, V domains shown, Mutation 1 background; CDRs built) VH: QVQLQQPGAELVKPGASVRLSCQTSVNTFSTYYIYWVKQRPGEGLEWIGGLNPTSNPVFNEKFKSKATLTVDTSSSTAYMQLSSLTSVDSAVYYCTRSVIRRGYYFDYWGQGTALTVSS VL: DIQMTQTTSSLSASLGDRVTISCRASQDINNYINWYQQKPDGTIKLLIYYTSRLQSGLPSRFSGSGSGTDYSLTIANLEQEDIATYFCQQDDTVPLTFGAGTKVELKR
OUT: 3.06e-06

The reported measurements were obtained from patent US20210403601A1.
